All figures here come from paper PMC4231793.

Test: Population pharmacokinetic analysis
Type: in vivo, human
Measurement context: human, whole blood, oral, 2.5 mg/m^2/day

{"columns": ["Sample smiles", "CL/F, L/h/kg"],
 "data": [
  ["CO[C@H]1C[C@@H]2CC[C@@H](C)[C@@](O)(O2)C(=O)C(=O)N2CCCC[C@H]2C(=O)O[C@H]([C@H](C)C[C@@H]2CC[C@@H](O)[C@H](OC)C2)CC(=O)[C@H](C)/C=C(\\C)[C@@H](O)[C@@H](OC)C(=O)[C@H](C)C[C@H](C)/C=C/C=C/C=C/1C", 0.17]
]}

----------
Test: Noncompartmental pharmacokinetic analysis of whole-blood sirolimus
Type: in vivo, human
Measurement context: human, whole blood, iv, 2.5 mg/m^2/day, C24 trough concentration, patients who developed grade III–IV aGVHD (n = 10); mean ± SD

{"columns": ["Sample smiles", "concentration at 24 h"],
 "data": [
  ["CO[C@H]1C[C@@H]2CC[C@@H](C)[C@@](O)(O2)C(=O)C(=O)N2CCCC[C@H]2C(=O)O[C@H]([C@H](C)C[C@@H]2CC[C@@H](O)[C@H](OC)C2)CC(=O)[C@H](C)/C=C(\\C)[C@@H](O)[C@@H](OC)C(=O)[C@H](C)C[C@H](C)/C=C/C=C/C=C/1C", "6.1 ng/mL"]
]}
